Entries and their pIC50
- target system: Mitogen-activated protein kinase 14 (Homo sapiens, UniProt Q16539)
- Sequence (Q16539 whole entry): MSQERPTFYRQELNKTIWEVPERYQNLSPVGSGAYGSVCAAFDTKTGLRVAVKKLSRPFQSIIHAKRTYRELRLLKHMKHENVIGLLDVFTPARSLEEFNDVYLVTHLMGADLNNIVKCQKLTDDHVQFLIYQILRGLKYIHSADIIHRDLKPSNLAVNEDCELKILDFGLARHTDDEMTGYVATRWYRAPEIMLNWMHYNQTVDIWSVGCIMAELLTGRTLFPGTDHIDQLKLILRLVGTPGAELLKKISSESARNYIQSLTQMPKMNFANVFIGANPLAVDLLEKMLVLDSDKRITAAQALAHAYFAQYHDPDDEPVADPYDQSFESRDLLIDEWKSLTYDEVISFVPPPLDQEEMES
Recall that pIC50 is obtained by taking minus log10 of the concentration measured in molar.

Worked examples, 5 compounds total:
> print(dat)
                                   compound                             target.system  readout  observed.value
1  Cc1ccc(NC(=O)c2ccnc(N3CCOCC3)c2)cc1Nc1ccnc(NCCCN2CCOCC2)n1  Mitogen-activated protein kinase 14 (Homo sapiens, UniProt Q16539)    pIC50            7.05
2  Cc1ccc(NC(=O)c2ccnc(N3CCOCC3)c2)cc1Nc1cc(Cl)ncn1  Mitogen-activated protein kinase 14 (Homo sapiens, UniProt Q16539)    pIC50            6.62
3  CCCN1CCC(Oc2nccc(Nc3cc(NC(=O)c4ccnc(N5CCOCC5)c4)ccc3C)n2)CC1  Mitogen-activated protein kinase 14 (Homo sapiens, UniProt Q16539)    pIC50            7.30
4  Cc1ccc(NC(=O)c2ccnc(N3CCOCC3)c2)cc1Nc1ccnc(OCC(C)(C)CN(C)C)n1  Mitogen-activated protein kinase 14 (Homo sapiens, UniProt Q16539)    pIC50            7.15
5  CSc1nccc(Nc2cc(NC(=O)c3cc(F)cc(N4CCOCC4)c3)ccc2C)n1  Mitogen-activated protein kinase 14 (Homo sapiens, UniProt Q16539)    pIC50            8.00

State pIC50 on Mitogen-activated protein kinase 14 (Homo sapiens, UniProt Q16539). Entry: CCN(CC)CCCNc1cc(Nc2cc(NC(=O)c3ccnc(N4CCOCC4)c3)ccc2C)ncn1
6.55

Look up Mitogen-activated protein kinase 14 (Homo sapiens, UniProt Q16539) data: pIC50 of Cc1ccc(NC(=O)c2ccnc(N3CCOCC3)c2)cc1Nc1ccnc(N(C)C2CCN(C)CC2)n1 , then report it.
7.10

Please indicate recorded pIC50 of COc1cc2ncnc(Nc3ccc(C)c(NC(=O)c4ccccc4)c3)c2cc1OC measured with Mitogen-activated protein kinase 14 (Homo sapiens, UniProt Q16539).
5.68

Please tell me the measured pIC50 for COc1cc2ncnc(Nc3cc(NC(=O)c4cccc(N(C)C)c4)ccc3C)c2cc1OC ; system: Mitogen-activated protein kinase 14 (Homo sapiens, UniProt Q16539).
7.52

Please respond with reported pIC50 (system Mitogen-activated protein kinase 14 (Homo sapiens, UniProt Q16539)) for COc1cc2ncnc(Nc3cccc(NC(=O)c4ccccc4)c3F)c2cc1OC .
6.16

Provide pIC50, tested on Mitogen-activated protein kinase 14 (Homo sapiens, UniProt Q16539), for Cc1ccc(NC(=O)c2ccnc(N3CCOCC3)c2)cc1Nc1ccnc(OCC2CCCN(C)C2)n1 (centres undefined) .
7.52

Find pIC50 for COc1cc2ncnc(Nc3ccc(Cl)c(NC(=O)c4cccc(N(C)C)c4)c3)c2cc1OC on Mitogen-activated protein kinase 14 (Homo sapiens, UniProt Q16539) and write it down.
5.77

Report its pIC50 with Mitogen-activated protein kinase 14 (Homo sapiens, UniProt Q16539) as the test system: C=CCN(C)c1nccc(Nc2cc(NC(=O)c3ccnc(N4CCOCC4)c3)ccc2C)n1
6.96

Determine reported pIC50 for COc1cc2ncnc(Nc3cccc(NC(=O)c4cccc(N(C)C)c4)c3)c2cc1OC ; test system: Mitogen-activated protein kinase 14 (Homo sapiens, UniProt Q16539).
6.68

Please indicate recorded pIC50 of COc1cc2ncnc(Nc3cc(NC(=O)c4ccccc4)c(F)cc3F)c2cc1OC measured with Mitogen-activated protein kinase 14 (Homo sapiens, UniProt Q16539).
7.30

Look up Mitogen-activated protein kinase 14 (Homo sapiens, UniProt Q16539) data: pIC50 of COc1cc2ncnc(Nc3cc(NC(=O)c4ccccc4)ccc3C)c2cc1OC , then report it.
7.15
